Target: JAK1 (Homo sapiens, UniProt P23458)
Construct: JAK1 (aa 850-1154) and TYK2 (aa 871-1187) are expressed with an N-terminally fused GST-tag; GST (N)
Sequence (P23458 850-1154): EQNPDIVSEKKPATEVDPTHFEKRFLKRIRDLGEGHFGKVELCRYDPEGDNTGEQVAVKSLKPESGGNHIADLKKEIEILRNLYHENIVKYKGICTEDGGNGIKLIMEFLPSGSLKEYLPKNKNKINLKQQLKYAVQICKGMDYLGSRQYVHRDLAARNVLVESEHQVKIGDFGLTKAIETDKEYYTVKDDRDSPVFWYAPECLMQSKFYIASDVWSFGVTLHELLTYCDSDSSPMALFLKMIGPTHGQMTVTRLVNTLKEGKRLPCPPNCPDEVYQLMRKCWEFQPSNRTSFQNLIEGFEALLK
Experiment: JAK1 kinase assay (HTRF, inhibition of phosphorylation of a synthetic peptide)
Conditions: catalytic domain aa 850-1154, GST-tag; 7 μM ATP (Km); read-out: JAK1 kinase inhibitory activity (EC50)
pEC50: −log10 of the molar value.
Below, each entry is listed alongside its reported pEC50.

Given the entry O=C(c1ccc(F)cc1)N1CCCN(c2ncnc3[nH]ccc23)CC12CC2 , report its measured pEC50.
6.00 to 7.00

Given the entry O=C(c1nc[nH]n1)N1CCCN(c2ncnc3[nH]ccc23)CC12CC2 , report its measured pEC50.
6.00 to 7.00

Given the entry O=C(c1ccc(Cl)cc1)N1CCN(c2ncnc3[nH]ccc23)CC2(CC2)C1 , report its measured pEC50.
6.00 to 7.00

Given the entry O=C(c1ccccc1F)N1CCN(c2ncnc3[nH]ccc23)CC2(CC2)C1 , report its measured pEC50.
6.00 to 7.00

Given the entry Cc1nnc(C(=O)N2CCN(c3ncnc4[nH]ccc34)CC3(CC3)C2)o1 , report its measured pEC50.
6.00 to 7.00

Given the entry O=C(Cc1ccc(F)cc1)N1CCN(c2ncnc3[nH]ccc23)CC2(CC2)C1 , report its measured pEC50.
> 7.00

Given the entry O=C(Cc1cnc[nH]1)N1CCN(c2ncnc3[nH]ccc23)CC2(CC2)C1 , report its measured pEC50.
6.00 to 7.00

Given the entry N#Cc1ccc(C(=O)N2CCCN(c3ncnc4[nH]ccc34)CC23CC3)cc1 , report its measured pEC50.
> 7.00

Given the entry O=C(Cc1ccc2ccccc2c1)N1CCN(c2ncnc3[nH]ccc23)CC2(CC2)C1 , report its measured pEC50.
6.00 to 7.00

* * *

Target: JAK2 (Homo sapiens, UniProt O60674)
Construct: All four purified enzymes contain only the catalytic domain; His (N)
Sequence (O60674 849-1124 limits assumed): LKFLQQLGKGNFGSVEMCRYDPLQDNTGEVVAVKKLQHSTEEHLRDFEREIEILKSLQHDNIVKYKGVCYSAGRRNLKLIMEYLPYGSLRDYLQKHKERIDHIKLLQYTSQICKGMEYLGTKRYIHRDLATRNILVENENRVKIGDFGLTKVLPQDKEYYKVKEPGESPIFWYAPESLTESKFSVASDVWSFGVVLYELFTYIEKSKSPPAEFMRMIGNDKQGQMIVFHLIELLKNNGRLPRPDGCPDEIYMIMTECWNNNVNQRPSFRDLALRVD
Test: JAK2 kinase assay (HTRF, inhibition of phosphorylation of a synthetic peptide)
Details: catalytic domain, His-tag; 4 μM ATP (Km); read-out: JAK2 kinase inhibitory activity (EC50)
pEC50: −log10 of the molar value.
Below, each entry is listed alongside its reported pEC50.

Worked set:
# entrySmiles, pEC50
rows = [
    ("O=C(Cc1ccccn1)N1CCN(c2ncnc3[nH]ccc23)CC2(CC2)C1", "6.00 to 7.00"),
    ("CCN(CC)S(=O)(=O)N1CCN(c2ncnc3[nH]ccc23)CC2(CC2)C1", "6.00 to 7.00"),
    ("N#Cc1cccc(CC(=O)N2CCN(c3ncnc4[nH]ccc34)CCC23CC3)c1", "< 6.00"),
    ("O=C(c1ccccn1)N1CCCN(c2ncnc3[nH]ccc23)CC12CC2", "> 7.00"),
    ("CC(C)(C(=O)N1CCN(c2ncnc3[nH]ccc23)CC2(CC2)C1)c1ccc(Cl)cc1", "6.00 to 7.00"),
    ("Cc1nnc(C(=O)N2CCCN(c3ncnc4[nH]ccc34)CC23CC3)o1", "> 7.00"),
    ("Cc1sncc1C(=O)N1CCN(c2ncnc3[nH]ccc23)CC2(CC2)C1", "6.00 to 7.00"),
    ("N#CCOc1ccc(C(=O)N2CCN(c3ncnc4[nH]ccc34)CC3(CC3)C2)cc1", "6.00 to 7.00"),
]

Given the entry N#CCCC(=O)N1CCN(c2ncnc3[nH]ccc23)CC2(CC2)C1 , report its measured pEC50.
> 7.00
